Where a name gives a salt, the structure may show the parent alone.
Readout Name: melting point

Reference set, count: 4
Task item: What melting point value was documented for this compound, Cc1cccc(C)c1C(=O)N1CCC(N2CCN([C@@H](C)c3ccc(S(=O)(=O)c4ccc5c(c4)OCO5)nc3)[C@H](C)C2)CC1 ?
Reply: 165 °C

Task item: # repeat for CNc1ccccc1C(=O)N1CCC(N2CCN(Cc3ccc(S(=O)(=O)c4cccc(C)c4)nc3)[C@H](C)C2)CC1 (as salt: HCl)
Reply: 144 to 148 °C (dec.)

Task item: # repeat for C[C@@H]1CN(C2CCN(C(=O)c3ccccc3N)CC2)CCN1[C@@H](C)c1ccc(S(=O)(=O)c2ccc3c(c2)OCO3)nc1
Reply: 187 to 188 °C

Task item: # repeat for C[C@@H]1CN(C2CCN(C(=O)c3cccc(Cl)c3N)CC2)CCN1[C@@H](C)c1ccc(S(=O)(=O)c2ccc3c(c2)OCO3)nc1
Reply: 184 to 186 °C

Next:
Task item: What melting point value was documented for this compound, C[C@@H]1CN(C2CCN(C(=O)c3cccc4c(F)cc(F)cc34)CC2)CCN1[C@@H](C)c1ccc(S(=O)(=O)c2ccc3c(c2)OCO3)nc1 ?
Reply: 172 to 174 °C

Task item: # repeat for C[C@@H]1CN(C2CCN(C(=O)c3cccc4cccnc34)CC2)CCN1[C@@H](C)c1ccc(S(=O)(=O)c2ccc3c(c2)OCO3)nc1
Reply: 174 °C
